molecular target: hPIEZO1 (Homo sapiens, UniProt Q92508); construct: expressed in transfected cells; assay: Automated patch clamp (SyncroPatch 384) on hPIEZO1-TREx cells; format: cell-based; conditions: hPIEZO1, normalised peak current, maximum response not certain; read-out: EC50 (estimate)
Sequence (Q92508 whole entry): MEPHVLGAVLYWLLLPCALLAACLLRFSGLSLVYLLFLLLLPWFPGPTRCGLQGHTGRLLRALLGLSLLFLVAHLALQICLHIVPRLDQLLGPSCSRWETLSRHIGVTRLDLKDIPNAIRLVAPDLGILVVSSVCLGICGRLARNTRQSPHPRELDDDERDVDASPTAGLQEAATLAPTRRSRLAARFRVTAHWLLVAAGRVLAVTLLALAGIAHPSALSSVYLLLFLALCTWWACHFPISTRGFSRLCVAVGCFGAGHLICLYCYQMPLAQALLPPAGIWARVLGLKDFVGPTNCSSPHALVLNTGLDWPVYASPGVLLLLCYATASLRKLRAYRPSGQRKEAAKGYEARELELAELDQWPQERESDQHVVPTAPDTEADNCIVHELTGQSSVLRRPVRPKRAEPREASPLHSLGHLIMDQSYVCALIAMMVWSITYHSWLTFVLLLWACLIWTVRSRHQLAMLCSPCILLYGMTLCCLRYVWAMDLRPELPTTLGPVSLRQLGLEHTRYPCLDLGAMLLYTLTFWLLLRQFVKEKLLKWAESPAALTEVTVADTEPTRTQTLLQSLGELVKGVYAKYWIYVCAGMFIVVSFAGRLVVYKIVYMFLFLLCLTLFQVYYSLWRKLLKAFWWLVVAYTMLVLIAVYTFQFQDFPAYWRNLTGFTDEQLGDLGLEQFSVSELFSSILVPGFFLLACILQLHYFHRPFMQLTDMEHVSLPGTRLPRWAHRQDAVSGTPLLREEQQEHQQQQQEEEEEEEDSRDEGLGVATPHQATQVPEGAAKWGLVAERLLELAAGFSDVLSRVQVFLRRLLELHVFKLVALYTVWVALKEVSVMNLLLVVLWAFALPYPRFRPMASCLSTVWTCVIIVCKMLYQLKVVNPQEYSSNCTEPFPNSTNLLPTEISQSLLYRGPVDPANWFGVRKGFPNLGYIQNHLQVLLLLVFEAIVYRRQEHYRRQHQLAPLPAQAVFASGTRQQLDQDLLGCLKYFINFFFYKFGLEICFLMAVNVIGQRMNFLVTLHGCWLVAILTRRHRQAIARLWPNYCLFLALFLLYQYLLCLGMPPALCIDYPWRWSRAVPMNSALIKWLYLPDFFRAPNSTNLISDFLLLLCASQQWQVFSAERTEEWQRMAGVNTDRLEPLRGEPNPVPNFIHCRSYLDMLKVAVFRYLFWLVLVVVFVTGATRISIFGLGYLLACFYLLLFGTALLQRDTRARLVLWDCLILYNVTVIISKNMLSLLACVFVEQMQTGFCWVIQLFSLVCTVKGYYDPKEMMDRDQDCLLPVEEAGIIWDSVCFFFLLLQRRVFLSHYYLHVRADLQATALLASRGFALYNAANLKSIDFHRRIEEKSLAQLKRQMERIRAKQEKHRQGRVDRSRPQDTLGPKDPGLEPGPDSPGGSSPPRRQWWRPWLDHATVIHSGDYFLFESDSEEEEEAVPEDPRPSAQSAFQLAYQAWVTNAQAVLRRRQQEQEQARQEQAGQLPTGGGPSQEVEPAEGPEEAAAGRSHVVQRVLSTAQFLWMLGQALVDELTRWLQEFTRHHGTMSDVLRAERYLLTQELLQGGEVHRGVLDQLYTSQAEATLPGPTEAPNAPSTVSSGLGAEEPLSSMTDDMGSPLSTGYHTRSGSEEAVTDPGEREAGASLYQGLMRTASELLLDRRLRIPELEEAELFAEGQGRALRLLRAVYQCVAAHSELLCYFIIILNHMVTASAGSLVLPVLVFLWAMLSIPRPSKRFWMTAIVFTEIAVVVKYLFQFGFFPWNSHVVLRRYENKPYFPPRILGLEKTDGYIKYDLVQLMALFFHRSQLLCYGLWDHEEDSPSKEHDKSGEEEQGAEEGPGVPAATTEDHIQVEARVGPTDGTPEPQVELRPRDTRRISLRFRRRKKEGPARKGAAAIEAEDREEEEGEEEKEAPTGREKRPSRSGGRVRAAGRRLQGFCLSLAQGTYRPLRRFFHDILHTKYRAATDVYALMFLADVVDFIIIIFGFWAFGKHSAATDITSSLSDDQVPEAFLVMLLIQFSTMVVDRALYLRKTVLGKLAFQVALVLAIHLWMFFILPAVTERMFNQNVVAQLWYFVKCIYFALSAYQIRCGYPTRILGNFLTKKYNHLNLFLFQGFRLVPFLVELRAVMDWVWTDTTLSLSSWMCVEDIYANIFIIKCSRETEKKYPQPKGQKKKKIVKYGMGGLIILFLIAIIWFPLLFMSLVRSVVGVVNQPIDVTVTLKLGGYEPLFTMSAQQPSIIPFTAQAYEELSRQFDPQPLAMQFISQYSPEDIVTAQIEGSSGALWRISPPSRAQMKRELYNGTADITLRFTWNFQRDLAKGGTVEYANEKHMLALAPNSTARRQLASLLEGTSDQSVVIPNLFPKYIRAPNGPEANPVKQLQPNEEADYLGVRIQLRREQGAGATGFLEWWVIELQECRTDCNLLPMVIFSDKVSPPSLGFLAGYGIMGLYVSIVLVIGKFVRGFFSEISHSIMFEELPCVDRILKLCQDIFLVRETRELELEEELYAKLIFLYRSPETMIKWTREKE
ENDPOINT_NAME: EC50

Q: Consider the molecule O=C(O)c1ccc(-c2nnc(SCc3c(Cl)cccc3Cl)s2)cc1 and give its measured EC50.
Ans: ~1670 nM

* * *

target: hPIEZO1 (Homo sapiens, UniProt Q92508); construct: expressed in transfected cells; assay: Intracellular Ca2+ measurement (Fura-2) in hPIEZO1-TREx cells; format: cell-based; settings: 10 μM compound, hPIEZO1-TREx cells, paired with 10 μM Yoda1
ENDPOINT_NAME: Peak ΔCa2+i (ΔF340/380), median fold difference compared to Yoda1 (fold)
One number for each entry, in fold.

molecule="NC(=O)c1cccc(-c2nnc(SCc3c(Cl)cccc3Cl)s2)c1 [KC162]" result=−3.7
molecule="O=C(O)c1cccc(-c2nnc(SCc3c(Cl)cccc3Cl)s2)c1 [KC158]" result=−11.7
molecule="O=C(O)c1ccccc1-c1nnc(SCc2c(Cl)cccc2Cl)s1 [KC157]" result=−24.4

Field: next molecule
Q: Consider the molecule NC(=O)c1ccc(-c2nnc(SCc3c(Cl)cccc3Cl)s2)cc1 [KC161] and give its measured Peak ΔCa2+i (ΔF340/380), median fold difference compared to Yoda1.
Ans: −23.6

* * *

target: mPIEZO1 (Mus musculus, UniProt E2JF22); construct: expressed in transfected cells; experiment: Intracellular Ca2+ measurement (Fura-2) in mPIEZO1-TREx cells; assay type: cell-based; details: 10 μM, cells overexpressing mPIEZO1, compared with Yoda1
Sequence (E2JF22 whole entry): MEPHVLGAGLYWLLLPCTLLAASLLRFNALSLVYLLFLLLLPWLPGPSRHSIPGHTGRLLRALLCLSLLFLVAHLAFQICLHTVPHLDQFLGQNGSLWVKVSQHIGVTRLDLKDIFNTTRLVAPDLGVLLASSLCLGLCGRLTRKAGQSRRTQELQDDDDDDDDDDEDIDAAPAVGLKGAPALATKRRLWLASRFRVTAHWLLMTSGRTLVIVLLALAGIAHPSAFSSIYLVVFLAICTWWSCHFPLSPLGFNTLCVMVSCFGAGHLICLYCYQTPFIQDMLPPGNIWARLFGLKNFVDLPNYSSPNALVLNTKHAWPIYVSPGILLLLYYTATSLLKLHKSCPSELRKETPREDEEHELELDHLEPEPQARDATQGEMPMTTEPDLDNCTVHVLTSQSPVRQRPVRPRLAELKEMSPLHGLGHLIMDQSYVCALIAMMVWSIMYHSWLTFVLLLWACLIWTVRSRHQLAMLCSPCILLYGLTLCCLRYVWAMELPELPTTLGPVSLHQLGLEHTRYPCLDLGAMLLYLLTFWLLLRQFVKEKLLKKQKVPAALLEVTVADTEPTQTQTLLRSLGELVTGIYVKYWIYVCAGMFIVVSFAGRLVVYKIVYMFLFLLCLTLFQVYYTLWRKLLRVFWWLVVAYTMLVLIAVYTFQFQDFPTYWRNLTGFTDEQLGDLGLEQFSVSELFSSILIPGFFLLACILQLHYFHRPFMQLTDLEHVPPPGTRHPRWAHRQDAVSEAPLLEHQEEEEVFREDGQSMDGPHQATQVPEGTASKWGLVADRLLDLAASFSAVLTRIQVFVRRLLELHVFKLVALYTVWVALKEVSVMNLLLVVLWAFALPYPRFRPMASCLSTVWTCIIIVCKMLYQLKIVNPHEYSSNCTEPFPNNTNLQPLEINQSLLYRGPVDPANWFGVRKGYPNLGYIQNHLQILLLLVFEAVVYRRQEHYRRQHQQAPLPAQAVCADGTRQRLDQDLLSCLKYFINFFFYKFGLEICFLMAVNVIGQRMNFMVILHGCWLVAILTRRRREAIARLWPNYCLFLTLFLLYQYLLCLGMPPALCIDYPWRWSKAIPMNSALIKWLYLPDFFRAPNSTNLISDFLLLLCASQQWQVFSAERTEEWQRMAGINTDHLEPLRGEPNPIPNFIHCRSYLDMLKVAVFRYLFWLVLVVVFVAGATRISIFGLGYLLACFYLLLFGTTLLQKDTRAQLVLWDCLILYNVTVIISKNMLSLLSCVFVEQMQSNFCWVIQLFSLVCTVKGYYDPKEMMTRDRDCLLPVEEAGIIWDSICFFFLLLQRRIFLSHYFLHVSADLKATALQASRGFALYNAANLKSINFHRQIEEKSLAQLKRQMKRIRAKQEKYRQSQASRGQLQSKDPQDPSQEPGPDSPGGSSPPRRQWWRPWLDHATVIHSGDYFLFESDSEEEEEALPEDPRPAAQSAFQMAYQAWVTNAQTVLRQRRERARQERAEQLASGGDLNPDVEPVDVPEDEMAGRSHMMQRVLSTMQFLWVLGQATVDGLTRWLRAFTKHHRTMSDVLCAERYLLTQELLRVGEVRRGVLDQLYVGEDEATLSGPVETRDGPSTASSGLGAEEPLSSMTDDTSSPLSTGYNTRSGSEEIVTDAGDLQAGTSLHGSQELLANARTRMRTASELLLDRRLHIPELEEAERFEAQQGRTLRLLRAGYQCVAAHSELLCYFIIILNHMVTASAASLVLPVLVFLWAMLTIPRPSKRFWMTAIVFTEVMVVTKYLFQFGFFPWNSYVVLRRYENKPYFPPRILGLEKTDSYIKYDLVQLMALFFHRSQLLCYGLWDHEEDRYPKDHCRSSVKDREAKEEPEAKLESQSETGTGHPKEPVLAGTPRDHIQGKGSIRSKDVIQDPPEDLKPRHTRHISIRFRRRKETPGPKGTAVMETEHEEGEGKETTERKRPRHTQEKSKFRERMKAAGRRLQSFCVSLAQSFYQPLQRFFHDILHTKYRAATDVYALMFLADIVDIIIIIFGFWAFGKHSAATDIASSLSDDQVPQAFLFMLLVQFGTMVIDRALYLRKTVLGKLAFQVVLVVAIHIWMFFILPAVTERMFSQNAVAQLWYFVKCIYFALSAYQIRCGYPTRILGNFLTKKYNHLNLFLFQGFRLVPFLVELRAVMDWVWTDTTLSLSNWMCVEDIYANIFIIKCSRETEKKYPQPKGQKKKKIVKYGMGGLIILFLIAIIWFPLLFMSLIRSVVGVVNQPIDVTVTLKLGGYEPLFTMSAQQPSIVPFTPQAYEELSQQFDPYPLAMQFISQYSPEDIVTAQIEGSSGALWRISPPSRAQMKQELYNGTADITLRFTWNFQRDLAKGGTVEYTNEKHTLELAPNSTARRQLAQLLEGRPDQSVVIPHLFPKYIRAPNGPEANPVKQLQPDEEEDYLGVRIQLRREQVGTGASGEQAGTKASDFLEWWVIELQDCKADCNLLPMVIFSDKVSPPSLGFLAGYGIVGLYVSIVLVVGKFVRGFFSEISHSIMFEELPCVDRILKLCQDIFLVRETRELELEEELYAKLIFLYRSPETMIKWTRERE
ENDPOINT_NAME: Ca2+ response (agonist effect)

input_smiles=NC(=O)c1cccc(-c2nnc(SCc3c(Cl)cccc3Cl)s2)c1 endpoint_name="Ca2+ response (agonist effect)" result="agonist effects"
input_smiles=O=C(O)c1cccc(-c2nnc(SCc3c(Cl)cccc3Cl)s2)c1 endpoint_name="Ca2+ response (agonist effect)" result="agonist effects"
input_smiles=NC(=O)c1ccc(-c2nnc(SCc3c(Cl)cccc3Cl)s2)cc1 endpoint_name="Ca2+ response (agonist effect)" result="agonist effects"

* * *

Target: PIEZO1 channels endogenously expressed in HUVECs (Homo sapiens, UniProt Q92508)
Construct: HUVECs, which are a physiologically relevant cell type that endogenously expresses PIEZO1 channels
Test: Intracellular Ca2+ measurement in HUVECs
Details: peak ΔCa2+i, Hill fit, read-out: EC50 (estimated concentration for 50% effect)
Protocol: Human umbilical vein endothelial cells (HUVECs) purchased from PromoCell (#C‐12203) were maintained in endothelial cell […] medium 2 (ECGM‐2, PromoCell #C‐22111) supplemented with 500 pg·ml^−1 recombinant human vascular endothelial growth factor 165, 10 ng·ml^−1 recombinant human basic fibroblast growth factor, 200 ng·ml^−1 hydrocortisone, 22.5 μg·ml^−1 heparin and 2% (vol./vol.) fetal calf serum. […]
ENDPOINT_NAME: EC50

input_smiles=O=C([O-])c1ccc(-c2nnc(SCc3c(Cl)cccc3Cl)s2)cc1.[K+] endpoint_name=EC50 result="1140 nM"

Field: next compound
Q: Find the measured EC50: item O=C(O)c1ccc(-c2nnc(SCc3c(Cl)cccc3Cl)s2)cc1 , target or system PIEZO1 channels endogenously expressed in HUVECs (Homo sapiens, UniProt Q92508).
Ans: 2280 nM

Source: paper PMC10952572
